Sourced from the supplement of paper PMC9262897

System: E. coli TESEC Mtb Alr
Test: growth (OD600 after 10 h); higher = more growth (less inhibition)
Conditions: arabinose 1000 nM; compound 0.1 mM; raw OD600 reference: median of DMSO wells 0.294, cell-free background 0.041
Counter-ions that a name gives are not always drawn.
The entries below come with measured growth values attached.
TEST READOUT: growth

> print(dat)
                                   compound  test.readout  result
1  N=C(N)N/N=C/c1c(Cl)cccc1Cl [Guanabenz acetate]        growth   0.224
2        CC(=O)Nc1ccc(O)cc1 [Acetaminophen]        growth   0.315
3             NC(=O)c1cccnc1 [Nicotinamide]        growth   0.335
4                    COc1ccccc1O [Guaiacol]        growth   0.314
5  CC(=O)OCC(=O)[C@@]1(O)[C@H](C)C[C@H]2[C@@H]3CCC4=CC(=O)C=C[C@]4(C)[C@@]3(F)[C@@H](O)C[C@@]21C [Dexamethasone acetate]        growth   0.239
6  CN(Cc1cnc2nc(N)nc(N)c2n1)c1ccc(C(=O)N[C@@H](CCC(=O)O)C(=O)O)cc1 [Methotrexate]        growth   0.285
7  Cc1cc(CC(=O)O)n(C)c1C(=O)c1ccc(Cl)cc1 [Zomepirac sodium salt]        growth   0.261
8  CN(C)CCN1C(=O)c2ccccc2N(C)c2ccccc21 [Dibenzepine hydrochloride]        growth   0.312
9  c1coc(CNc2ncnc3nc[nH]c23)c1 [6-Furfurylaminopurine]        growth    0.29

====

System: E. coli TESEC Mtb DapB
Experiment: growth (OD600 after 10 h); higher = more growth (less inhibition)
Conditions: arabinose induction (level): Low; compound 0.1 mM; raw OD600 reference: median of DMSO wells 0.227, cell-free background 0.041

COMPOUND	growth
NC(=O)c1cccnc1 [Nicotinamide]	0.258
C[C@]12CCC(=O)C=C1CC[C@@H]1[C@@H]2C(=O)C[C@@]2(C)[C@H]1CC[C@]2(O)C(=O)CO	0.223
O=C(O)CN(CCN(CC(=O)O)CC(=O)O)CCN(CC(=O)O)CC(=O)O	0.0709
COc1ccc([C@@H]2CC(=O)c3c(O)cc(O[C@@H]4O[C@H](CO[C@@H]5O[C@@H](C)[C@H](O)[C@@H](O)[C@H]5O)[C@@H](O)[C@H](O)[C@H]4O)cc3O2)cc1O	0.251
CCCCC1=NC2(CCCC2)C(=O)N1Cc1ccc(-c2ccccc2-c2nnn[nH]2)cc1	0.263
Cc1onc(-c2c(F)cccc2Cl)c1C(=O)N[C@@H]1C(=O)N2[C@@H]1SC(C)(C)[C@@H]2C(=O)O [Flucloxacillin sodium]	0.259
C#C[C@]1(OC(C)=O)CC[C@H]2[C@@H]3CCC4=C[C@@H](OC(C)=O)CC[C@@H]4[C@H]3CC[C@@]21C [Ethynodiol diacetate]	0.165

====

# Lookup of reported growth keyed by entry
Tested on: E. coli TESEC Alr+ wild-type control
Experiment: growth (OD600 after 10 h); higher = more growth (less inhibition)
Details: compound 0.1 mM; raw OD600 reference: median of DMSO wells 0.49, cell-free background 0.052
Structures can show the parent of a compound that is named as a salt.

COMPOUND	growth
CC[C@@H](CO)NCCN[C@@H](CC)CO [Ethambutol dihydrochloride]	0.476
CC1(C)O[C@@H]2C[C@H]3[C@@H]4C[C@H](F)C5=CC(=O)C=C[C@]5(C)[C@@]4(F)[C@@H](O)C[C@]3(C)[C@]2(C(=O)CO)O1 [Fluocinolone acetonide]	0.591
Cc1cc2c(cc1S(N)(=O)=O)S(=O)(=O)CCC2 [Meticrane]	0.423
Cc1cccc(N(C)C(=S)Oc2ccc3ccccc3c2)c1 [Tolnaftate]	0.465
CN(Cc1cc(Br)cc(Br)c1N)C1CCCCC1 [Bromhexine hydrochloride]	0.0641
CC(=O)N1CCN(c2ccc(OCC3COC(Cn4ccnc4)(c4ccc(Cl)cc4Cl)O3)cc2)CC1 (stereo not drawn) [Ketoconazole]	0.0814
COc1cc(Cc2cnc(N)nc2N)cc(OC)c1OC [Trimethoprim]	0.0896
CCCNCC(O)COc1ccccc1C(=O)CCc1ccccc1 (stereo not drawn) [Propafenone hydrochloride]	0.452

====

System: E. coli TESEC Mtb DapB
Assay: growth (OD600 after 10 h); higher = more growth (less inhibition)
Conditions: arabinose induction (level): Low; compound 0.1 mM; raw OD600 reference: median of DMSO wells 0.227, cell-free background 0.041
Structures can show the parent of a compound that is named as a salt.

COMPOUND	growth
CN1CCC[C@@H]1CCO[C@](C)(c1ccccc1)c1ccc(Cl)cc1 [Clemastine fumarate]	0.102
CC1=C(CC(=O)O)c2cc(F)ccc2/C1=C\c1ccc([S+](C)[O-])cc1 (stereo not drawn)	0.196
CCc1cc(C(N)=S)ccn1 [Ethionamide]	0.217
CCC(Cc1c(I)cc(I)c(N)c1I)C(=O)O (stereo not drawn)	0.177
COc1cc(C(=O)NS(=O)(=O)c2ccccc2C)ccc1Cc1cn(C)c2ccc(NC(=O)OC3CCCC3)cc12	0.213
CCOC(=O)C1=C(C)NC(C)=C(C(=O)OC)C1c1cccc(Cl)c1Cl (stereo not drawn)	0.0792
CC(C)(S)C(N)C(=O)O (racemic)	0.205
CCOC(=O)[C@H](CCc1ccccc1)N[C@@H](C)C(=O)N1[C@H](C(=O)O)C[C@@H]2CCC[C@@H]21	0.229
COc1ccc(Cl)cc1C(=O)NCCc1ccc(S(=O)(=O)NC(=O)NC2CCCCC2)cc1 [Glibenclamide]	0.173
O=c1oc2ccccc2c(O)c1Cc1c(O)c2ccccc2oc1=O	0.199
Cc1ccc2c(c1)c1c3n2CCNC3CCC1 (stereo not drawn) [Pirlindole mesylate]	0.201
COc1ccc2cc(CCC(C)=O)ccc2c1	0.187
CC(C(=O)O)c1ccc(-c2ccccc2)c(F)c1 (stereo not drawn)	0.188
CN[C@H](CC(C)C)C(=O)N[C@H]1C(=O)N[C@@H](CC(N)=O)C(=O)N[C@H]2C(=O)N[C@H]3C(=O)N[C@H](C(=O)N[C@H](C(=O)O)c4cc(O)cc(O)c4-c4cc3ccc4O)[C@H](O)c3ccc(c(Cl)c3)Oc3cc2cc(c3O[C@@H]2O[C@H](CO)[C@@H](O)[C@H](O)[C@H]2O[C@H]2C[C@](C)(N)[C@H](O)[C@H](C)O2)Oc2ccc(cc2Cl)[C@H]1O [Vancomycin hydrochloride]	0.0604
CC(=O)OCC(=O)[C@@]1(O)[C@H](C)C[C@H]2[C@@H]3CCC4=CC(=O)C=C[C@]4(C)[C@@]3(F)[C@@H](O)C[C@@]21C [Dexamethasone acetate]	0.233
CC[N+](C)(CC)CCOC(=O)C1c2ccccc2Oc2ccccc21 [Methantheline bromide]	0.222
OCCOCCN1CCN(C(c2ccccc2)c2ccc(Cl)cc2)CC1 (stereo not drawn) [Hydroxyzine dihydrochloride]	0.239
COc1cc(-c2ccc(=O)[nH]n2)ccc1OC(F)F	0.176
N=C(NCCCCCCNC(=N)NC(=N)Nc1ccc(Cl)cc1)NC(=N)Nc1ccc(Cl)cc1	0.0542
CC(CN(C)C)C(C)(O)Cc1ccc(Cl)cc1 (stereo not drawn) [Clobutinol hydrochloride]	0.222
CCCC(C(=O)OCCN(CC)CC)(c1ccccc1)c1ccccc1 [Proadifen hydrochloride]	0.129
COc1ccc(NS(=O)(=O)c2ccc(N)cc2)nn1	0.22
N[C@@H]1CCCCN(c2c(F)cc3c(=O)c(C(=O)O)cn(C4CC4)c3c2Cl)C1 [Besifloxacin hydrochloride]	0.0491
O=c1[nH]c(=O)n(C2CCCO2)cc1F (stereo not drawn)	0.23
Cc1cc2c(cc1S(N)(=O)=O)S(=O)(=O)CCC2	0.281
CC(=O)OC[C@H]1O[C@@H]([S-])[C@H](OC(C)=O)[C@@H](OC(C)=O)[C@@H]1OC(C)=O.CCP(CC)CC.[Au+]	0.111
NS(=O)(=O)Cc1noc2ccccc12 [Zonisamide]	0.234
Cn1ccnc1S	0.262
C#C[C@]1(O)CC[C@H]2[C@@H]3CCC4=C(CCC(=O)C4)[C@H]3CC[C@@]21C	0.17
CCN1CCCC(OC(=O)C(c2ccccc2)c2ccccc2)C1 (stereo not drawn) [Piperidolate hydrochloride]	0.182
N/C(=N\C(=O)c1nc(Cl)c(N)nc1N)NCc1ccccc1 [Benzamil hydrochloride]	0.232
NCCCCCC(=O)O	0.28
O=C1C(O)=C(O)C(=O)C(O)=C1O [Tetrahydroxy-1,4-quinone hydrate]	0.226

====

Each entry below lists one item and its recorded growth value.
Tested on: E. coli TESEC Alr+ wild-type control
Experiment: growth (OD600 after 10 h); higher = more growth (less inhibition)
Conditions: compound 0.1 mM; raw OD600 reference: median of DMSO wells 0.241, cell-free background 0.041
Where a name gives a salt, the structure may show the parent alone.

COMPOUND	growth
NNCCc1ccccc1 [Phenelzine sulfate]	0.221
C[C@]12CC[C@@H]3c4ccc(O)cc4CC[C@H]3[C@@H]1CC[C@@H]2O	0.125
O=C(N/N=C/c1ccc([N+](=O)[O-])o1)c1ccc(O)cc1 [Nifuroxazide]	0.148
CC(=O)N(O)CCCCCNC(=O)CCC(=O)N(O)CCCCCNC(=O)CCC(=O)N(O)CCCCCN [Deferoxamine mesylate]	0.0549
CCN1CCN(c2cc3c(cc2F)c(=O)c(C(=O)O)cn3C2CC2)CC1	0.0413
Nc1c2c(nc3ccccc13)CCCC2O (racemic) [Hydroxytacrine maleate (R,S)]	0.227
CCCOc1ccc2[nH]c(NC(=O)OC)nc2c1	0.264
CC(=O)O[C@@]12CO[C@@H]1C[C@H](O)[C@@]1(C)C(=O)[C@H](O)C3=C(C)[C@@H](OC(=O)[C@H](O)[C@@H](NC(=O)OC(C)(C)C)c4ccccc4)C[C@@](O)([C@@H](OC(=O)c4ccccc4)[C@H]21)C3(C)C	0.266
